System: HCT-15
Method Description: Growth of human HCT15 cells at 3 uM after 48 hrs by SRB assay
Condition Summary: HCT-15, 48 h
Quick reference: growth, % of control at 3 µM of the listed items.
Write down the numeric answer in % and omit the unit.

Before answering, review these 6 worked examples.
CCCCCCCCCCCCCCS(=O)(=O)N(C)CC[N+](C)(C)C 26.9
C=CC[N+](CC)(CC)CCN(C)S(=O)(=O)CCCCCCCCCCCCCCCC 66.6
C=CC[N+](C)(C)CCN(C)S(=O)(=O)CCCCCCCCCCCCCC 49.9
C=CC[N+](CC)(CC)CCN(C)S(=O)(=O)CCCCCCCCCCCCCC 62.9
CCCCCCCCCCCCCCS(=O)(=O)NCC(C)(C)C[N+](C)(C)CC 91.6
CCCCCCCCCCCCCCS(=O)(=O)N(C)CC[N+](CC)(CC)CC 72.5

In: Tell me growth, % of control at 3 µM of CCCCCCCCCCCCCCS(=O)(=O)NCCC[N+](C)(C)CC when tested on HCT-15.
Out: 36.9

In: Report value only: growth, % of control at 3 µM, HCT-15, C=CC[N+](C)(C)CCN(C)S(=O)(=O)CCCCCCCCCCCCCCCC
Out: 76.5

Where do these numbers come from? They come from ChEMBL document CHEMBL2434921.
